Tested on: KM12 colon
Experiment: NCI-60 one-dose screen, 48 h
Details: 10 µM unless noted
This is part of a sample that, as a whole, favours compounds with a hit. Of some 83,000 tested, about 20% had one in any assay. Active and inactive are the calls of the source. The calls were made as follows: active = growth percent below 10; inactive = the rest.
Pick one: active, inactive

A selection of reference data follows.
{"columns": ["COMPOUND", "CLASS NAME"],
 "data": [
  ["COc1cc(/C=C2\\SC(=O)NC2=O)ccc1OCC(=O)Nc1ccc(C(=O)/C=C/c2cc3ccccc3nc2Cl)cc1", "inactive"],
  ["O=c1[nH]c(CNc2ccc(NCc3c(-c4ccccc4)no[n+]3[O-])cc2)nc2c1cnn2-c1ccccc1", "inactive"],
  ["O=C1Nc2ccc(Br)cc2/C1=N\\c1nnc(-c2ccc(Cl)cc2)o1", "inactive"],
  ["O=C1[C@@H]2Cc3c([nH]c4ccccc34)[C@H](c3c(Cl)cccc3Cl)N2C(=O)CN1C1CCN(Cc2ccccc2)CC1", "inactive"],
  ["N/C(=N\\c1nc2ccc([N+](=O)[O-])cc2s1)C(Cl)(Cl)Cl", "inactive"]
]}

Ask | Which result was noted for this compound in the test: CC1OC(O[C@@H]2[C@H](O)C(CO)OC(O[C@H]3COC(O[C@H]4CC[C@]5(C)[C@H]6CC[C@]78OC[C@@]9(CCC(C)(C)C[C@H]97)[C@H](O)C[C@@]8(C)[C@]6(C)CC[C@H]5C4(C)C)[C@@H](OC4OC(CO)[C@@H](O)[C@@H](O)[C@@H]4O)[C@@H]3O)[C@H]2OC2OC[C@@H](O)[C@@H](O)[C@@H]2O)[C@@H](O)[C@@H](O)[C@H]1O (stereo partly specified)
Reply | active

###

Test system: OVCAR-5 ovarian
Test: NCI-60 one-dose screen, 48 h (100 = growth as untreated, 0 = no growth, -100 = all killed)
Settings: 10 µM unless noted
This is part of a sample that, as a whole, favours compounds with a hit. Of some 83,000 tested, about 20% had one in any assay. Active and inactive are the calls of the source. The calls were made as follows: active = growth percent below 10; inactive = the rest.
Parameter: growth. Scope: all listed entries.

{"columns": ["COMPOUND", "growth"],
 "data": [
  ["COc1ccc([C@H]2[C@H](O)C(=O)N2c2cc(OC)c(OC)c(OC)c2)cc1Cl", "30.3% (inactive)"],
  ["CCCCCCNC(=O)Oc1ccc(/C(=C(/C)c2ccccc2)c2ccc(OCCN(C)C)cc2)cc1", "73% (inactive)"],
  ["CC(C)Sc1nc(NC2CC2)c(C#N)c(-c2ccccc2)n1", "84.4% (inactive)"],
  ["CCn1c2ccc(/C=N/OCCCN(C)C)cc2c2cc(/C=N/OCCCN(C)C)ccc21", "31.1% (inactive)"],
  ["Nc1nc(N)c2c(n1)NC(c1ccc(Cl)cc1)CC(c1ccc(Nc3nc(NCCO)nc(Nc4ccc(Cl)cc4)n3)cc1)=N2 (configuration not stated)", "84.8% (inactive)"],
  ["COc1ccc(CCN2C(=O)/C(=C/c3nc(CO)cs3)SC2=S)cc1", "102% (inactive)"]
]}

Ask | State the measured growth (OVCAR-5 ovarian) of CC[C@@](C)(NC(=O)C(C)(C)NC(=O)[C@@H](NC(=O)[C@@H]1CCCN1C(=O)C(C)(C)NC(=O)[C@H](CC(C)C)NC(=O)CNC(=O)C(C)(C)NC(=O)[C@@H](NC(=O)C(C)(C)NC(=O)[C@H](CCC(N)=O)NC(=O)[C@H](C)NC(=O)C(C)(C)NC(=O)[C@H](C)NC(=O)C(C)(C)NC(=O)[C@H](C)NC(=O)C(C)(C)NC(C)=O)C(C)C)C(C)C)C(=O)N[C@@H](CCC(N)=O)C(=O)N[C@@H](CCC(N)=O)C(=O)N[C@H](CO)CC1CCCCC1
Reply | 19.9% [5 µM] (inactive)

###

System: NCI-H226 lung
Experiment: NCI-60 one-dose screen, 48 h
Conditions: 10 µM unless noted
This is part of a sample that, as a whole, favours compounds with a hit. Of some 83,000 tested, about 20% had one in any assay. Calls of active or inactive are those of the source. Rule for the calls: active = growth percent below 10; inactive = the rest.
Pick one: class 1 for active, class 0 for inactive

{"columns": ["COMPOUND", "CLASS NAME"],
 "data": [
  ["CN1CCN(c2ccc(NC(=O)Nc3ccc4c(ccn4-c4cccc(C(N)=O)n4)c3)cc2C(F)(F)F)CC1", "class 0"],
  ["Oc1ccc(CSc2nnc(-c3ccc(Cl)cc3)o2)c2cccnc12", "class 0"],
  ["CCCCCCNC(=O)Oc1ccc(/C(=C(\\C)c2ccc(OC)cc2)c2ccc(OCCN(C)C)cc2)cc1", "class 0"],
  ["Cc1ccc(Cc2cnc(NC(=O)/C(C#N)=C/c3ccc(-c4ccc(Cl)cc4)o3)s2)cc1", "class 0"],
  ["CS(=O)c1nccc(-c2c(-c3ccc(F)c(OCCc4ccc(F)cc4)c3)nc3sccn23)n1 (centres undefined)", "class 0"]
]}

Ask | Which result was noted for this compound in the test: Nc1ccc(-c2nnc(SCc3ccc(O)c4ncccc34)o2)cc1
Reply | class 1

Ask | Which result was noted for this compound in the test: COc1cc2cc(Oc3ccc(NC(=O)c4cccc(C(F)(F)F)c4)cc3)c(C)nc2cc1OCCN(C)C
Reply | class 0

Ask | Which result was noted for this compound in the test: Oc1ccc(-c2nnc(SCc3ccc(O)c4ncccc34)n2-c2ccccc2)cc1
Reply | class 0

Ask | Which result was noted for this compound in the test: C#CCOc1ccc(/C=N/Nc2nc(-c3cc(Cl)ccc3Cl)cs2)cc1
Reply | class 0

###

Parameter: growth. Scope: all listed entries.
Test system: RXF 393 renal
Assay: NCI-60 one-dose screen, 48 h (100 = growth as untreated, 0 = no growth, -100 = all killed)
Conditions: 10 µM unless noted
The panel holds about 83,000 compounds, 20% with a hit somewhere; the sample as a whole holds those more often.
Respond numerically; units are % and should not be typed.

{"columns": ["CHEMICAL SMILES", "TARGET ENTITY", "UNITS OF MEASURE", "growth"],
 "data": [
  ["CN1CCN(c2ccc(C(=O)Nc3cccc(-c4cn(-c5ccc(S(N)(=O)=O)cc5)nn4)c3)cc2C(F)(F)F)CC1", "RXF 393 renal", "%", 6.63],
  ["C/C(=N/Nc1nc(N/N=C(/C)c2ccc([N+](=O)[O-])cc2)nc(N2CCOCC2)n1)c1ccc([N+](=O)[O-])cc1", "RXF 393 renal", "%", 69.2],
  ["CC(C)SC1=NC(=C(C(=N1)NC2=ClC=CC=C2)C#N)C3=CC=CC=C3", "RXF 393 renal", "%", 69.3]
]}

Next compound, growth to be filled in.
Ask | Supply growth value. Item: Nc1n[nH]c2cccc(C#Cc3cccc(NC(=O)c4cccc(OC(F)(F)F)c4)c3)c12
Reply | 24.2

###

Test system: SK-MEL-5 melanoma
Assay: NCI-60 one-dose screen, 48 h (100 = growth as untreated, 0 = no growth, -100 = all killed)
Settings: 10 µM unless noted
The panel holds about 83,000 compounds, 20% with a hit somewhere; the sample as a whole holds those more often.
Decide by growth: equal to or exceeding 70% means Criterion met, less means Criterion not met.

{"columns": ["CHEMICAL SMILES", "CLASS NAME"],
 "data": [
  ["O=S(=O)(Nc1ccc(-c2nc(-c3cccc(O)c3)c(-c3ccnc(Br)c3)[nH]2)cc1)c1ccccc1", "Criterion not met"]
]}

Ask | API: above_or_equal(metric=growth, cutoff=70%) for item C#Cc1ccc(NC(=O)c2ccc(/C=C/C(=O)c3nccn3C)cc2)c(F)c1
Reply | Criterion not met

Ask | API: above_or_equal(metric=growth, cutoff=70%) for item Cc1ccc(NC(=O)c2ccc(CN3CCN(C)CC3)c(I)c2)cc1Oc1ccc(-c2[nH]nc3ncnc(N)c23)cc1
Reply | Criterion not met

Ask | API: above_or_equal(metric=growth, cutoff=70%) for item C/C(=C(/c1ccc(O)cc1)c1ccc(OCCN(C)C)cc1)c1ccc(Cl)cc1
Reply | Criterion not met

Ask | API: above_or_equal(metric=growth, cutoff=70%) for item O=S(=O)(Nc1ccc(I)c(Cl)c1)c1ccc(-c2cnc(C3CC3)o2)cc1
Reply | Criterion not met

Ask | API: above_or_equal(metric=growth, cutoff=70%) for item Cc1ccc(/C=C/c2nn3c(-c4ccco4)nnc3s2)cc1
Reply | Criterion met

Ask | API: above_or_equal(metric=growth, cutoff=70%) for item Oc1ccccc1/C=N/Nc1nc(N/N=C/c2ccccc2O)nc(N2CCOCC2)n1
Reply | Criterion not met

Ask | API: above_or_equal(metric=growth, cutoff=70%) for item C#CCOc1ccc(/C=N/Nc2nc(-c3cc(Cl)ccc3Cl)cs2)cc1
Reply | Criterion met

Ask | API: above_or_equal(metric=growth, cutoff=70%) for item O=c1c2c(O)cccc2oc2c3c(cc(O)c12)O[C@H]1OC=C[C@@H]31
Reply | Criterion met
